# System: 242566-281-R-J2-PDC complex spheroid viability
# ASSAY EXPLANATION: Anticancer human tumor 242566-281-R-J2-PDC patient-derived pancreatic carcinoma cell line growth inhibition [RAS]
# STUDY CONDITIONS: second compound 0.00949 µM; first compound 1 µM; active compounds read low
# Source text: RAS pathway inhibitors in Combinations in Complex Spheroids A high-throughput screen of multi-cell type tumor spheroids was designed to identify active combinations of RAS pathway inhibitors and targeted small molecules. Complex spheroids include a stromal component modeled by human endothelial cells (HUVEC) and fibroblasts modeled by human mesenchymal stem cells (MSCs). […] Compounds. […] If the clinical Cmax for an agent had not been determined, the highest concentration tested was 10 microM. […]
EXPERIMENTAL ENDPOINT: viability, T/C (%)
Number in %, nothing else.

Reference set, count: 2
1) Nc1ccn(C2OC(CO)C(O)C2(F)F)c(=O)n1 (stereo not drawn) + CCn1c(-c2cc(N3CCN(C)CC3)cnc2C(C)OC)c2c3cc(ccc31)-c1csc(n1)CC(NC(=O)C1CC1C)C(=O)N1CCCC(N1)C(=O)OCC(C)(C)C2 :: 16.6
2) CCC(CC)c1cc(NC2CCC(N)C2)n2nccc2n1 (stereo not drawn) + CCn1c(-c2cccnc2C(C)OC)c2c3cc(ccc31)N1CCOC(CC(NC(=O)C(C(C)C)N(C)C(=O)C3(F)CCN(C(=O)C#CC(C)(C)N(C)C)CC3)C(=O)N3CCCC(N3)C(=O)OCC(C)(C)C2)C1 :: 87.6

Let us examine a further case.
Hello, I am looking for reported viability, T/C with 242566-281-R-J2-PDC complex spheroid viability for C[C@@H](NC(=O)c1ncnc(N)c1Cl)c1ncc(C(=O)Nc2cc(C(F)(F)F)c(Cl)cn2)s1 + CCn1c(-c2cccnc2C(C)OC)c2c3cc(ccc31)N1CCOC(CC(NC(=O)C(C(C)C)N(C)C(=O)C3(F)CCN(C(=O)C#CC(C)(C)N(C)C)CC3)C(=O)N3CCCC(N3)C(=O)OCC(C)(C)C2)C1 . Could you help?
115

----------
# Test system: 242566-281-R-J2-PDC complex spheroid viability
# ASSAY EXPLANATION: Anticancer human tumor 242566-281-R-J2-PDC cell line growth inhibition [RAS];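 also: spheroids exposed to compound for 7 days before readout; 100% = DMSO vehicle control wells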
# STUDY CONDITIONS: second compound 0.000949 µM; first compound 0.003 µM; active compounds read low
EXPERIMENTAL ENDPOINT: viability, T/C (%)
I only need the number, in %, no unit after it.

These solved cases illustrate the format of a correct answer.
1) CCc1c2c(nc3ccc(O)cc13)-c1cc3c(c(=O)n1C2)COC(=O)[C@]3(O)CC + CCn1c(-c2cc(N3CCN(C)CC3)cnc2C(C)OC)c2c3cc(ccc31)-c1csc(n1)CC(NC(=O)C1CC1C)C(=O)N1CCCC(N1)C(=O)OCC(C)(C)C2 :: 89
2) CC1(C)CCC(Nc2ncc(C(F)(F)F)c(-c3c[nH]c4c(P(C)(C)=O)c(C#N)ccc34)n2)CN1 (centres undefined) + CCn1c(-c2cccnc2C(C)OC)c2c3cc(ccc31)N1CCOC(CC(NC(=O)C(C(C)C)N(C)C(=O)C3(F)CCN(C(=O)C#CC(C)(C)N(C)C)CC3)C(=O)N3CCCC(N3)C(=O)OCC(C)(C)C2)C1 :: 100
3) CC1(C)CCC(Nc2ncc(C(F)(F)F)c(-c3c[nH]c4c(P(C)(C)=O)c(C#N)ccc34)n2)CN1 (centres undefined) + CCn1c(-c2cc(N3CCN(C)CC3)cnc2C(C)OC)c2c3cc(ccc31)-c1csc(n1)CC(NC(=O)C1CC1C)C(=O)N1CCCC(N1)C(=O)OCC(C)(C)C2 :: 98

Turning now to a further compound:
Which measured viability, T/C value corresponds to CCc1c2c(nc3ccc(O)cc13)-c1cc3c(c(=O)n1C2)COC(=O)[C@]3(O)CC + CCn1c(-c2cccnc2C(C)OC)c2c3cc(ccc31)N1CCOC(CC(NC(=O)C(C(C)C)N(C)C(=O)C3(F)CCN(C(=O)C#CC(C)(C)N(C)C)CC3)C(=O)N3CCCC(N3)C(=O)OCC(C)(C)C2)C1 ?
92.3
